experimentSummary: self-splicing fitness, log relative to wild type (ln ratio); higher = more splicing; Tetrahymena group I intron in knt gene, E. coli kanamycin selection, DiMSum; sequences stand for … in CUCUCU…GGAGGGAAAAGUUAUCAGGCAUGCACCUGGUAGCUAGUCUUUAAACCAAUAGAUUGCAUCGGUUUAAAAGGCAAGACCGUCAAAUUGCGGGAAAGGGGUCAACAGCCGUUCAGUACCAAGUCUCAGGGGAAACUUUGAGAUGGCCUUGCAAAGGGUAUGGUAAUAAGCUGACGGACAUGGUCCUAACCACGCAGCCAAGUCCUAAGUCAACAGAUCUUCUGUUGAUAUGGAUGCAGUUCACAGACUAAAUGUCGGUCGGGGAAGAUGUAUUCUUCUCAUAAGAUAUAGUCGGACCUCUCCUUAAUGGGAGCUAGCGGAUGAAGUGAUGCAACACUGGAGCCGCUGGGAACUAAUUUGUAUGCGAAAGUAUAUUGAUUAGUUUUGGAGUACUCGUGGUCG;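 further: selection with 25 µg/mL kanamycin versus none on LB agar overnight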
conditionLabel: 37 °C
measureName: self-splicing fitness (ln)
The response must contain the number and no unit.

Worked examples, 3 sequences total:
- GAAUAGCAAUAUUACGCAGG: -2.28
- CCGUAGCAAUAUUACGCUGU: -3.17
- AGAGAGCAAUAUUACGCAAA: -2.69

[in] Name the recorded self-splicing fitness (ln) for GCCUAGCAAUAUUACGGUUG .
[out] -1.62

[in] Which value of self-splicing fitness (ln) has been reported for CACAAGCAAUAUUACGCCGG in the records?
[out] -0.35

Values were extracted from the supplement of paper PMC7877785.
